# Assayed target: T1, TruB (tmTruB), tRNA pseudouridine-55 synthase (Thermotoga maritima, UniProt Q9WZW0 1-309)
# T1 sequence: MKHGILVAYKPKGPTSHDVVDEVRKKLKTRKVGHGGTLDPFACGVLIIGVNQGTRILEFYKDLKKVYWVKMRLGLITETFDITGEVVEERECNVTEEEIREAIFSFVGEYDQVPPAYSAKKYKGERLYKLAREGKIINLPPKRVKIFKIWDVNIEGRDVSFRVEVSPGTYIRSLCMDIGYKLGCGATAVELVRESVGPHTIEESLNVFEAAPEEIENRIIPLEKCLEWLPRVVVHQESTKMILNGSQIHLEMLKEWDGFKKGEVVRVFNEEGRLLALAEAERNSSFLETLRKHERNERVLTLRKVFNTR
# Assay comment: MST; one of three runs 1 month apart; unit cut off in the material (nM assumed); 1x MST buffer (composition not in material); tRNA folded 4 min 75 C in water then cooled in buffer; MST at 25 C, 50 nM tRNA; fluorescence at 200 nM tRNA; SDS-PAGE complexes formed at 25 or 70 C
# Particulars: protein: recombinant; label: Cy5 at U33 (internal); tRNA fold
Metric name: pKd
The scale used: pKd is minus the common logarithm of the concentration in molar units.

Provide one value: measured pKd of U33-5FU55-tRNA (Cy5 at U33) (structured_RNA, 5-fluorouridine at position 55; 5-aminohexyl-3-acrylimido-uridine at U33) RNA: GCGGAUUUAGCUCAGUUGGGAGAGCGCCAGACUGAAGAUCUGGAGGUCCUGUGUUCGAUCCACAGAAUUCGCACCA
7.43
